Molecular target: Alpha-2C adrenergic receptor (Homo sapiens) (UniProt P18825)
Sequence (P18825 whole entry, looked up): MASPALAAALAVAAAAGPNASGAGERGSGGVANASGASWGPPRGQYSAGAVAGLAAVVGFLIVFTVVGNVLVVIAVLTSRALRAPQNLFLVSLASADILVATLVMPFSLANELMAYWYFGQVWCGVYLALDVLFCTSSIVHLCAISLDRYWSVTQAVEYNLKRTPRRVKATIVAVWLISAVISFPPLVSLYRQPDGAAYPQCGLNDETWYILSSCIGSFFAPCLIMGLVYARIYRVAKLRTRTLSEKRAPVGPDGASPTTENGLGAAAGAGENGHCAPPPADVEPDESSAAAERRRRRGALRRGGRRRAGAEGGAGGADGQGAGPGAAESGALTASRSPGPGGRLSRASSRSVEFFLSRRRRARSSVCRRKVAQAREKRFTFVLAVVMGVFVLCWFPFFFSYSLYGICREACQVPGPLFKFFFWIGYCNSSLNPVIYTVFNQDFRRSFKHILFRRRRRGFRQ
Experiment: compounds altering alpha2C-coupled GIRK flux – cell-based, HEK293 alpha2C/GIRK1/2, thallium flux, primary screen (AID 624);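 further: slope of fluorescence ratio to pre-addition baseline per second over 15 to 24 s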
Details: thallium flux BTC fluorescence, at 10 µM, actives lie on both sides
// values below are reported slope

{"Compound": "Cc1ccc(C(C(=O)NC2CCCCC2)N2CCOCC2)cc1 (configuration not stated)", "slope": 0.00526}
{"Compound": "O=C(O)CC1NC(=O)N(c2ccccc2)C1=O (configuration not stated)", "slope": 0.00411}
{"Compound": "O=C(O)CCNc1nc(-c2ccccc2)nc2ccccc12", "slope": 0.00675}
{"Compound": "Cc1cc(=O)n(CCO)c(O)c1C#N", "slope": 0.00309}
{"Compound": "COc1ccc(C(=O)Nc2nncs2)c(OC)c1", "slope": 0.00588}
{"Compound": "COc1ccc(C)cc1NC(=O)C1CCN(S(=O)(=O)c2cccc3cccnc23)CC1", "slope": 0.00559}
{"Compound": "Cc1nnc(SCC(=O)Nc2c(Cl)cccc2Cl)[nH]c1=O", "slope": 0.00796}
